experimentalSystem: human ether-à-go-go-related gene (hERG) potassium channel (human, UniProt Q12809);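 also: peak tail current of the secondary pulse compared with the same well before compound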
Sequence (Q12809 whole entry, looked up): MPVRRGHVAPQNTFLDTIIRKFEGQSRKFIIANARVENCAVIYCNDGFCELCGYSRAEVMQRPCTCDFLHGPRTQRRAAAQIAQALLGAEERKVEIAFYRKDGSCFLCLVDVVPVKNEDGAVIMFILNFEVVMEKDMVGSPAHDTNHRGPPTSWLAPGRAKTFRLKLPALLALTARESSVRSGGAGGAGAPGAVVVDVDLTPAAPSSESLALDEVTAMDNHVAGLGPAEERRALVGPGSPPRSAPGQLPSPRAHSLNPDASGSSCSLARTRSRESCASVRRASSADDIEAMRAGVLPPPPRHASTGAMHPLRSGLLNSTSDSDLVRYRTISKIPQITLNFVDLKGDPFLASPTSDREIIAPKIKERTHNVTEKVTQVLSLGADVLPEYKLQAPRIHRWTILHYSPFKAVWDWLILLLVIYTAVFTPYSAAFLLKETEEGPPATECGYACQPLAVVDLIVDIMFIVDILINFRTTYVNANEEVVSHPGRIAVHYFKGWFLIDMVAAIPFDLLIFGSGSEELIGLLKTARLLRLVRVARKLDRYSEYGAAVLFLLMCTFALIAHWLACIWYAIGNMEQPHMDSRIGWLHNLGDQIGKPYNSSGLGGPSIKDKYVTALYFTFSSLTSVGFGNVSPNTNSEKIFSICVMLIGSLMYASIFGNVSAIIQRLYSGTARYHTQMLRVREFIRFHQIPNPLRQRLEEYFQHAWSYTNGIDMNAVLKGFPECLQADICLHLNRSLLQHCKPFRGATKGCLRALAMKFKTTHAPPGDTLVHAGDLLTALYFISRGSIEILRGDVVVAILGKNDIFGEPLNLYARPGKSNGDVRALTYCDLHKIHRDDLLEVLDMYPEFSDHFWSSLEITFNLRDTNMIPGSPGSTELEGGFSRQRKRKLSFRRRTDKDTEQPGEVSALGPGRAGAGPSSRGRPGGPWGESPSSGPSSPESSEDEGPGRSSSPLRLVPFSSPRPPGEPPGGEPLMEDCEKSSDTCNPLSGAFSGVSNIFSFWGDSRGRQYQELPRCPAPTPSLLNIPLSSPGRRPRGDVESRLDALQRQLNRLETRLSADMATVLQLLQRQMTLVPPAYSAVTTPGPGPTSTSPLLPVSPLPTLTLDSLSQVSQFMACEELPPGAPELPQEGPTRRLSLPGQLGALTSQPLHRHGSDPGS
protocolSummary: primary screen, population patch clamp on CHO cells stably expressing hERG; higher = less effect of the substance
The whole screen tested about 310,000 compounds, of which about 14,000 (4.5%) showed an effect of 50% or more. The effect is printed as a negative number. This excerpt belongs to a sample that is enriched for strong results.
readoutType: hERG current change (%, negative = inhibition) at 10uM
State the value, then name its unit.

Look over these answered cases.
compound	result
Cc1nonc1CN(C)C(=O)c1cc(COc2ccc(F)cc2Cl)on1	-4.29%
Cc1nnc2n1-c1ccc(Br)cc1C(c1ccccc1Cl)=NC2	-21.1%
O=c1c2ccccc2c(=O)n(Cc2ccccc2)n1Cc1ccccc1	16.8%
CCS(=O)(=O)NCc1nnc2n1-c1ccc(Cl)cc1C(c1ccccc1)=NC2	12.6%
COc1ccc(C2CC(c3ccc(Br)cc3)=NN2C(=O)CN2CCCC2)cc1 (centres unmarked)	-68.1%
CN1CCN(Cc2nnc3n2-c2ccc(Cl)cc2C(c2ccccc2)=NC3)CC1.O=CO	-64.7%

Please supply hERG current change (%, negative = inhibition) at 10uM for each of the following items, keeping them in order.
1. COc1ccc(C2=NN(C(=O)CN3CCCCC3)C(c3ccc(C)cc3)C2)cc1 (centres unmarked)
2. CNc1ccc(Cl)cc1C(N)=O
3. Clc1ccc2c(c1)C(c1ccccc1Cl)=NCc1nncn1-2
4. C=CCNC(=O)C1CCN(S(=O)(=O)c2ccc(Br)cc2)CC1
5. O=C(Cn1c(=O)c2cccn2c2ccccc21)NCCCN1CCCCC1

-54.9%
26.1%
-4.37%
-58.7%
3.5%

====

experimentalSystem: human ether-à-go-go-related gene (hERG) potassium channel (human, UniProt Q12809);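 also: peak tail current of the secondary pulse compared with the same well before compound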
protocolSummary: primary screen, population patch clamp on CHO cells stably expressing hERG; higher = less effect of the substance
Hit rate of the full screen: of about 310,000 compounds, about 14,000 (4.5%) showed an effect of 50% or more. The effect is printed as a negative number. The sample holds strong results, similar compounds and a random draw of the others, so the mix is not that of the screen.
readoutType: hERG current change (%, negative = inhibition) at 10uM (%)
Answers are plain numbers, in %.

Consider the worked cases shown below.
CCc1ccc(N(CC)c2ncnc3nc[nH]c23)cc1 -4.89
CCOc1ccc(-c2c(C(=O)N/N=C(\C)c3cccs3)nnn2-c2nonc2N)cc1 12.9
COc1cc(OC)cc(C(=O)OCC(=O)NCc2ccc3c(c2)OCO3)c1 12.9
CCNc1nc(NCC)nc(N/N=C(\C)c2ccc(OC)cc2)n1 -14.1

We now examine a further compound.
For the compound shown here, `CC(=O)Nc1ccc(C(=O)NNC(=O)c2ccccc2-n2cccc2)cc1` , give the reported hERG current change (%, negative = inhibition) at 10uM.
6.54

====

experimentalSystem: human ether-à-go-go-related gene (hERG) potassium channel (human);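 also: peak tail current of the secondary pulse compared with the same well before compound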
protocolSummary: primary screen, population patch clamp on CHO cells stably expressing hERG; higher = less effect of the substance
Among all 310,000 compounds or so, about 14,000 (4.5%) showed an effect of 50% or more. The effect is printed as a negative number. Shown is part of a subset that was picked to be rich in strong results.
Assign hERG current change (%, negative = inhibition) at 10uM to each entry below.
Show the value, then the unit it is measured in.

molecule	result
CCOc1ccccc1C(=O)Nc1cc(C(=O)NCC(C)C)ccc1Cl	12%
COc1cccc(CN2CCN(C(=O)c3cccc4ccccc34)CC2)c1.O=C(O)C(=O)O	-12%
COc1ccc(C(=O)c2c3ccc(C(F)(F)F)cc3[n+]([O-])n2CCC[NH3+])cc1.[Cl-]	-73.3%
O=C(c1cc2nc(-c3ccccc3)cc(-c3ccccc3)n2n1)N1CCCC1	9.99%
COc1ccc(C(=O)c2c3ccc(OC)cc3[n+]([O-])n2Cc2ccc(C(N)=O)cc2)cc1	-42%

For each of the items listed, what is its hERG current change (%, negative = inhibition) at 10uM?
1. C/C(CC(=O)Nc1ccc(N(C)C)cc1)=N\NC(=O)c1ccccn1
2. COc1ccc(C(=O)c2c3ccc(OC)cc3[n+]([O-])n2CCCC(N)=O)cc1
3. O=C(c1cc2nc(-c3ccccc3)cc(-c3ccccc3)n2n1)N1CCN(C(=O)c2ccco2)CC1
4. COc1ccc(C(=O)c2c3ccc(C(F)(F)F)cc3[n+]([O-])n2CCCC(N)=O)cc1
5. CCOc1ccccc1N1CCN(C(=O)c2csc(C)c2CC)CC1

1: 7.77%; 2: -34.9%; 3: -56.9%; 4: -51.6%; 5: -8.41%
